B1: Pistol ribozyme (parent)
chain: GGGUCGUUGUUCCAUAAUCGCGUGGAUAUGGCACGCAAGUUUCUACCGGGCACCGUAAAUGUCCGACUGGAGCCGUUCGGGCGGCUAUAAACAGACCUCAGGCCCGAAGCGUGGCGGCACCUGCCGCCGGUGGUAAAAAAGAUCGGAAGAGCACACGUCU

# Variants of: B1
# protocol summary: aptazyme ON/OFF ratio, guanine; higher = stronger switching; co-transcriptional cleavage with and without guanine
Listing: aptazyme ON/OFF ratio of selected variants
measured metric: aptazyme ON/OFF ratio

In [3]: df
Out[3]:
                         alteration  reading
 0       U7G U8A G9U U10G C12A C13U     1.08
 1                U7G U8G C12A C13U     1.57
 2           U7C G9U U11G C12G C13G     1.17
 3       U7G U8A G9A U10C U11G C12A     1.04
 4               U8A U10C U11G C13G     1.13
 5                U8A G9A C12G C13A     1.36
 6           U8A G9C U11A C12A C13G     1.18
 7  U7C U8G G9C U10C U11C C12A C13A     1.03
 8                U7C G9A U10C U11G     1.42
 9      U8C G9U U10A U11A C12U C13A     1.14
10               U7C U10A U11A C12U      1.2
11          U7C U10C U11C C12A C13G     1.32
12      U8A G9U U10A U11A C12U C13G     1.36
13              U10C U11G C12A C13U      1.3
14          U8A U10C U11G C12G C13G     1.26
15      U7C G9U U10C U11C C12U C13A     1.02
16       U7G U8C G9C U11G C12U C13U     1.37
17                U7C G9C U10A C12G     1.09
18            U7A U8G G9C U10C U11C    0.976
19           U8G G9C U10G U11C C13U     1.04
20      U7A U8A U10G U11C C12G C13A     1.23
21      U7C G9C U10A U11A C12G C13G     1.12
22  U7G U8A G9U U10G U11A C12G C13G     1.05
23            U7G U8C G9A U10C C12A     1.18
24           U7A U8G U11G C12G C13U     1.42
25           U8C G9A U10A C12U C13A     1.16
26               U7G U11G C12U C13A     1.14
27       U7C U8C G9U U10A C12U C13G     1.14
28      U7C U8C U10A U11G C12U C13U     1.15
29          U7A U10G U11C C12G C13U     1.34
30                 U7C U8C G9C C12G     1.18
31      U7C G9A U10C U11G C12G C13U     1.09
32                U8G G9C U10C C13G     1.04
33  U7A U8G G9U U10C U11G C12G C13A     1.36
34       U7A U8C G9A U10G U11G C13U     1.18
35                U7C G9U C12G C13A     1.11
36      U7A G9C U10G U11A C12U C13G     1.07
37                U7C G9C U11A C13G     1.04
38      U7G G9C U10C U11A C12A C13G     1.15
39                   U10C U11G C12A      1.1
40  U7C U8A G9U U10A U11C C12A C13A     1.18
41              U10C U11C C12A C13A     1.19
42       U7A U8A G9U U10G C12A C13A     1.38
43      U7G U8A U10C U11G C12A C13U     1.37
44           U8C G9A U10A U11A C13G     1.07
45           U7C G9C U11G C12G C13G     1.09
46           U8A G9A U10A U11G C12U     1.15
47               G9U U10A U11C C12A     1.72
48                    U8G U10C C12A     1.34
49           U7A U8C U10G U11G C13A      1.2
50               G9U U10G U11A C12G     2.23
51       U7C U8A G9C U10A U11G C12G     1.31
52      U7G U8A U10C U11G C12U C13G     1.29
53               G9U U10G C12U C13G     1.66
54  U7G U8C G9A U10G U11C C12A C13A     1.15
55                     U8G G9A C13U     1.28
56            U7C U8G G9A U11C C13U     1.05
57          U7G U10G U11A C12U C13G     1.16
58      U7C U8G U10C U11G C12G C13G     1.09
59       U7C U8C G9C U11G C12G C13U      1.1
60                U7G U8C U10C U11G     1.27
61                     U8G G9C U11C     1.03
62       U7G U8G G9A U10G U11A C12A     1.07
63           U7G U8C U11C C12U C13G      1.3
64          U8A U10C U11G C12U C13U     1.27
65                 U7G U8C G9C U10G     1.17
66  U7G U8A G9A U10G U11G C12G C13U     1.26
67       U7C U8A G9A U10C U11A C12U     1.28
68                        U10C U11G     1.57
69      U7G G9A U10A U11C C12G C13G      1.1
70                U8A G9A C12G C13G      1.2
71                U8C G9A U11A C12A     1.25
72          U7C U10G U11G C12A C13U     1.26
73               G9U U10G U11C C13G      1.1
74                U8C G9U U10A C13A     1.29
75      U7C U8G U10C U11C C12U C13U      1.1
76            U7A U8A G9C U10C U11C    0.984
77      U7G U8C U10G U11G C12U C13G     1.29
78                 U7G U8C G9U U10G     3.44
79       U7G U8G G9U U10A U11G C13A     1.07
80      U8G G9C U10A U11A C12U C13U     1.19
81                    G9U U10G C12A     1.47
82      U8A G9C U10G U11C C12A C13A     1.17
83          U7A U10C U11C C12A C13U      1.1
84           U7G G9C U10C U11C C12G     1.14
85           U7C G9C U11A C12U C13A     1.02
86            U7C U8C G9C U10C U11C     1.14
87                U8C G9C U10C C12U     1.07
88  U7A U8C G9U U10G U11A C12G C13A     1.22
89       U7C U8C G9U U11A C12G C13A     1.07
90           U7G U8C U10C C12U C13G     1.19

All values here come from the RNAGym collection of RNA variant scans (doi:10.1021/acssynbio.7b00057).
